Biological target: human GcgR (Homo sapiens)
Sequence (P47871 26-477): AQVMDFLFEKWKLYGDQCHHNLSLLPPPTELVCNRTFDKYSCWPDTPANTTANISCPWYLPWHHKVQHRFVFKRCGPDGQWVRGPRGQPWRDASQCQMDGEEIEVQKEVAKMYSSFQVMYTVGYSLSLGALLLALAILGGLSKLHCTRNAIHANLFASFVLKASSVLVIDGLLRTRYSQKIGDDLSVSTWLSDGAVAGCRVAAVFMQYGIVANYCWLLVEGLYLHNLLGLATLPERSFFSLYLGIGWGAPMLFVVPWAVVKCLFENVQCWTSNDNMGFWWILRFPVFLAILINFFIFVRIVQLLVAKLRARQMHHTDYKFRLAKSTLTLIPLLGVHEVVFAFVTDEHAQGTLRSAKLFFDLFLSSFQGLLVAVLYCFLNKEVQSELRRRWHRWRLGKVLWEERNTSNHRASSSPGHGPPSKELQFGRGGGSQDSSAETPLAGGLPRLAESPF
Assay: Functional cAMP activity in the presence of 1% HSA
Type: cell-based
Details: read-out: cAMP Rel EC50, hGcgR
Starred links: 1 amine or outer side, 2 acyl side, 3 side chain; linkers in the order of their positions; H or OH if unused. Non-standard residues stand in square brackets, D forms with d. Groups on a side chain read outwards from the residue. No end group written: not given here. *: point of attachment. C20 diacid = O=C(O)CCCCCCCCCCCCCCCCCCC(=O)*; C18 diacid = O=C(O)CCCCCCCCCCCCCCCCC(=O)*; αMePhe(2-F) = C[C@](N)(Cc1ccccc1F)C(=O)O; γGlu = O=C(O)[C@H](CCC(=O)[*:2])N[*:1]; αMe4Pal = C[C@](N)(Cc1ccncc1)C(=O)O; αMeY = C[C@](N)(Cc1ccc(O)cc1)C(=O)O; 4Pal = N[C@@H](Cc1ccncc1)C(=O)O; αMeL = CC(C)C[C@](C)(N)C(=O)O; αMeS = C[C@](N)(CO)C(=O)O; Orn = NCCC[C@H](N)C(=O)O; Dab = NCC[C@H](N)C(=O)O; AEEA = NCCOCCOCC(=O)O; Aib = CC(C)(N)C(=O)O
Parameter Measured: EC50
Quick note: unit goes after the number.

Prompt: Please look at this substance and report its EC50: H-Y[Aib]QGTFTSD[4Pal]S[Dab][αMeL]LDKK([AEEA-γGlu-C18 diacid])AQ[Aib]AFIEYLIE[Aib]GESSGAPPPSGS-NH2 [Example 188]
Response: 2920 nM

Prompt: Please look at this substance and report its EC50: H-Y[Aib]QGT[αMePhe(2-F)]TSD[4Pal][αMeS]I[αMeL]LD[Orn]K([AEEA-γGlu-C18 diacid])AQ[αMe4Pal]EFI[dE][αMeY]LIEGGPSSGEPPPGGE-NH2 [Example 1145]
Response: 148 nM

Prompt: Please look at this substance and report its EC50: H-Y[Aib]QGTFTSDFSK[αMeL]LDKK([AEEA-γGlu-C18 diacid])AQ[Aib]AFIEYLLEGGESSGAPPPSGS-NH2 [Example 146]
Response: 463 nM

Prompt: Please look at this substance and report its EC50: H-Y[Aib]QGTFTSD[4Pal]SQ[αMeL]LDKK([AEEA-γGlu-γGlu-C18 diacid])AQ[αMe4Pal]AFIEYLIAGGPSSGEPPPSGS-NH2 [Example 947]
Response: 727 nM

Prompt: Please look at this substance and report its EC50: H-Y[Aib]QGT[αMePhe(2-F)]TSD[4Pal]SILLDKK([γGlu-γGlu-C18 diacid])AQ[Aib]AFIEYLEEGGPSSGAPPPSGTE-NH2 [Example 509]
Response: 617 nM

Prompt: Please look at this substance and report its EC50: H-Y[Aib]QGTFTSDFS[Orn][αMeL]LDKK([AEEA-γGlu-C18 diacid])AQ[Aib]AFIEWLLEGGHSSGAPPPSGH-NH2 [Example 269]
Response: 1100 nM

Prompt: Please look at this substance and report its EC50: H-Y[Aib]QGT[αMePhe(2-F)]TSD[4Pal][αMeS]I[αMeL]LD[Orn]K([γGlu-Glu-C18 diacid])AQ[Aib][Orn]FI[dE][αMeY]LSEGGPSSGEPPPSGTE-NH2 [Example 565]
Response: 1770 nM

Prompt: Please look at this substance and report its EC50: H-Y[Aib]QGT[αMePhe(2-F)]TSD[4Pal]SILLDKK([γGlu-γGlu-C18 diacid])AQ[Aib]AFIEWLQEGGPSSGEPPPSGTEE-NH2 [Example 579]
Response: 679 nM

Prompt: Please look at this substance and report its EC50: H-Y[Aib]QGT[αMePhe(2-F)]TSD[4Pal]SILLDKK([γGlu-γGlu-C18 diacid])AQ[Aib]AFIEYLEEGGPSSGAPPPSGSEE-NH2 [Example 610]
Response: 536 nM

Prompt: Please look at this substance and report its EC50: Y[Aib]QGT[αMePhe(2-F)]TSD[4Pal][αMeS]I[αMeL]LD[Orn]QAQ[αMe4Pal]EFI[dE][αMeY]LIEGGPSSGAPPPSGGGE-NH2 [Example 1234]
Response: 11.7 nM

Prompt: Please look at this substance and report its EC50: H-Y[Aib]QGTFTSDFSK[αMeL]LDKK([AEEA-γGlu-C18 diacid])AQ[Aib]AFIEYLLEGGPSSGAPPPSEG[AEEA]-NH2 [Example 56]
Response: 265 nM

Prompt: Please look at this substance and report its EC50: H-Y[Aib]QGT[αMePhe(2-F)]TSD[4Pal]SILLD[Orn]K([γGlu-γGlu-C18 diacid])AQ[Aib][Orn]FIE[αMeY]LEEGGPSSGAPPPSGTGE-NH2 [Example 674]
Response: 168 nM

Prompt: Please look at this substance and report its EC50: H-Y[Aib]QGT[αMePhe(2-F)]TSD[4Pal][αMeS]I[αMeL]LD[Orn]K([AEEA-γGlu-C18 diacid])AA[Aib]EFI[dE][αMeY]LLEGGPSSGAPPPSGS-NH2 [Example 672]
Response: 162 nM

Prompt: Please look at this substance and report its EC50: Y[Aib]QGTFTSD[4Pal]SQ[αMeL]LD[Orn]K([dE-γGlu-C18 diacid])AQ[αMe4Pal]AFIEYLIA[Aib]GPSSGEPPPSGSEE-NH2 [Example 1101]
Response: 827 nM

Prompt: Please look at this substance and report its EC50: H-Y[Aib]QGTFTSD[4Pal]S[Orn][αMeL]LDKK([γGlu-γGlu-γGlu-C18 diacid])AQ[αMe4Pal]AFIEYLIE[Aib]GPSSGAPPPSGS-NH2 [Example 866]
Response: 669 nM

Prompt: Please look at this substance and report its EC50: H-Y[Aib]QGT[αMePhe(2-F)]TSD[4Pal][αMeS]I[αMeL]LD[Orn]K([AEEA-γGlu-C18 diacid])AQ[αMe4Pal]EFI[dE][αMeY]LVEGGPSSGAPPPSGSE-NH2 [Example 751]
Response: 267 nM

Prompt: Please look at this substance and report its EC50: H-Y[Aib]QGT[αMePhe(2-F)]TSD[4Pal][αMeS]ILLD[Orn]K([γGlu-γGlu-C18 diacid])AQ[Aib][Orn]FI[dE]YLIEGGPSSGEPPPEGTEEE-NH2 [Example 577]
Response: 937 nM

Prompt: Please look at this substance and report its EC50: Y[Aib]QGTFTSD[4Pal]SK[αMeL]LDKK([AEEA-γGlu-C20 diacid])AQ[Aib]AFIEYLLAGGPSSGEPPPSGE-NH2 [Example 28]
Response: 1550 nM

Prompt: Please look at this substance and report its EC50: H-Y[Aib]QGTFTSDFS[Orn][αMeL]LDKK([γGlu-γGlu-C18 diacid])AQ[Aib]AFIEYLLEGGPSSG[Aib]PPPGGS-NH2 [Example 771]
Response: 955 nM

Prompt: Please look at this substance and report its EC50: Y[Aib]QGTFTSDYSI[αMeL]LDKQAAK([AEEA-AEEA-γGlu-C20 diacid])QFIEYLIA[Aib]GPSSGEPPPSEG-NH2 [Example 349]
Response: 2280 nM

Prompt: Please look at this substance and report its EC50: H-Y[Aib]QGTFTSDFS[Orn][αMeL]LDKK([γGlu-γGlu-C18 diacid])AQ[Aib]AFIEYLLEGGPSS[Aib]APPPGGS-NH2 [Example 770]
Response: 390 nM

Prompt: Please look at this substance and report its EC50: H-Y[Aib]QGTFTSD[4Pal]SQ[αMeL]LDKK([Glu-Glu-γGlu-C18 diacid])AQ[αMe4Pal]AFIEYLIAGGPSSGAPPPSGEEE-NH2 [Example 1090]
Response: 2010 nM
